target_under_test: Phosphodiesterase 3A (Sus scrofa)
assay_comment: Inhibition of phosphodiesterase 3 (PDE3) from porcine platelets, range 31.8-60.7

smiles_str	IC50
OCCN(CCO)c1nc(N2CCCCC2)c2nc(N(CCO)CCO)nc(N3CCCCC3)c2n1	44 µM

----------
target_under_test: Phosphodiesterase 3A (Sus scrofa, UniProt Q9XSW7)
Sequence (Q9XSW7 whole entry): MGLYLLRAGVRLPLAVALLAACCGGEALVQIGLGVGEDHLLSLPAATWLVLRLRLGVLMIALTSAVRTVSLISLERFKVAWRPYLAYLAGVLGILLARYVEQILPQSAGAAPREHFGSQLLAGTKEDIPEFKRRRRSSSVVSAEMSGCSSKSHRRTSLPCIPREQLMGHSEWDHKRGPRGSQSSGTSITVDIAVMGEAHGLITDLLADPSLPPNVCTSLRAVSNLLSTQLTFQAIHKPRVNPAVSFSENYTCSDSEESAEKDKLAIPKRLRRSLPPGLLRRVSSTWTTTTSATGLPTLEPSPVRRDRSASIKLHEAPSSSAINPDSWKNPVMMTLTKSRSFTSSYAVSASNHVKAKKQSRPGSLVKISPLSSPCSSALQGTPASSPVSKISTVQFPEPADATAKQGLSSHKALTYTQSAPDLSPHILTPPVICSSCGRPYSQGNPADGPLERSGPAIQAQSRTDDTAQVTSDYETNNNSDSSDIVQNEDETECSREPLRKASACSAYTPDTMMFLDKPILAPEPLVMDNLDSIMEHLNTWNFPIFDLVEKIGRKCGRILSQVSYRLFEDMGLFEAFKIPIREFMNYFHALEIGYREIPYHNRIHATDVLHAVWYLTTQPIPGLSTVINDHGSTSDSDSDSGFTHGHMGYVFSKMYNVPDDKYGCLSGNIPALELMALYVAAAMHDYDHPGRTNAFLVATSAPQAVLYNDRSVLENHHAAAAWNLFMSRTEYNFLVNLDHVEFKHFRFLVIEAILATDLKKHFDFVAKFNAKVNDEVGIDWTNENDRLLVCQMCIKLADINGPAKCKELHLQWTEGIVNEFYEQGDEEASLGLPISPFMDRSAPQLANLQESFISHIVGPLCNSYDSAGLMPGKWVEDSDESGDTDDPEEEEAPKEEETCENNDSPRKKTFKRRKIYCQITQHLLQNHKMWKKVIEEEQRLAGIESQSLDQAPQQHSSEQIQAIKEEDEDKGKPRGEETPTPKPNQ
assay_comment: Inhibition of phosphodiesterase 3 (PDE3) from porcine platelets
Listed here are compounds together with their documented IC50.

compound	target_under_test	IC50
COc1ccc(C2CNC(=O)C2)cc1OC1CCCC1 (configuration not stated)	Phosphodiesterase 3A (Sus scrofa, UniProt Q9XSW7)	> 100 µM
CCCOc1ccccc1-c1nc2[nH]nnc2c(=O)[nH]1	Phosphodiesterase 3A (Sus scrofa, UniProt Q9XSW7)	> 100 µM

----------
assay_comment: Pharmacokinetic parameter, Cmax (plasma conc.) after 0.3 mg/kg po administration in rats
Format: ADME, organism-based
Parameters: dose 0.3 mg/kg, route oral
conditions_used: rat
test_readout: Cmax

smiles_str	test_readout	assay_value
COc1ccc(CNc2nnc(N3CCC(O)CC3)c3ccc(C#N)cc23)cc1Cl.Cl	Cmax	25.5 ng/mL

----------
assay_comment: Inhibition of phosphodiesterase 1 (PDE1) from porcine adrenal tissue, range 26.5-36.7
Parameters: species or system Sus scrofa
conditions_used: in the assay text read “porcine aorta” for “porcine adrenal tissue”
test_readout: IC50

smiles_str	test_readout	assay_value
CCCOc1ccccc1-c1nc2[nH]nnc2c(=O)[nH]1	IC50	31.2 µM

----------
assay_comment: Pharmacokinetic parameter, AUC (area under curve) after 0.3 mg/kg po administration in rats
Format: ADME, organism-based
Set-up: dose 0.3 mg/kg, route oral
conditions_used: rat, in vivo

smiles_str	value_units	AUC
COc1ccc(CNc2nnc(N3CCC(O)CC3)c3ccc(C#N)cc23)cc1Cl.Cl	ng·h/mL	32.4

----------
assay_comment: Pharmacokinetic parameter, AUC (area under curve) after 0.3 mg/kg iv administration in rats
Type: ADME, organism-based
Parameters: dose 0.3 mg/kg, route intravenous
conditions_used: rat, in vivo

smiles_str	AUC [ng·h/mL]
COc1ccc(CNc2nnc(N3CCC(O)CC3)c3ccc(C#N)cc23)cc1Cl.Cl	166

----------
target_under_test: Phosphodiesterase 4A (Sus scrofa, UniProt O77823)
Sequence (O77823 whole entry): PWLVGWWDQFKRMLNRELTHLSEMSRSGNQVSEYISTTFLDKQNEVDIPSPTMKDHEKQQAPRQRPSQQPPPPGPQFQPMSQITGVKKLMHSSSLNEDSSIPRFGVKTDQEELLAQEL
assay_comment: Inhibition of phosphodiesterase 4 (PDE4) from porcine liver, range 1.01-1.36

smiles_str	value_units	IC50
COc1ccc(CNc2nnc(N3CCC(O)CC3)c3ccc(C#N)cc23)cc1Cl.Cl	nM	1170

----------
assay_comment: Pharmacokinetic parameter, tmax after 0.3 mg/kg po administration in rats
Format: ADME, organism-based
Set-up: dose 0.3 mg/kg, route oral
conditions_used: rat, in vivo

smiles_str	Tmax (min)
COc1ccc(CNc2nnc(N3CCC(O)CC3)c3ccc(C#N)cc23)cc1Cl.Cl	15

----------
assay_comment: Inhibition of phosphodiesterase 1 (PDE1) from porcine adrenal tissue
Format: tissue-based, Sus scrofa
conditions_used: in the assay text read “porcine aorta” for “porcine adrenal tissue”
pIC50: −log10 of the molar value.
Listed here are compounds together with their documented pIC50.

compound	pIC50
Cc1[nH]c(=O)c(C#N)cc1-c1ccncc1	< 4.00
COc1ccc(C2CNC(=O)C2)cc1OC1CCCC1 (configuration not stated)	< 4.00

----------
assay_comment: Inhibition of phosphodiesterase 1 (PDE1) from porcine adrenal tissue, range 51.1-108
Parameters: species or system Sus scrofa
conditions_used: in the assay text read “porcine aorta” for “porcine adrenal tissue”

molecule	IC50
OCCN(CCO)c1nc(N2CCCCC2)c2nc(N(CCO)CCO)nc(N3CCCCC3)c2n1 [DIPYRIDAMOLE]	74.5 µM

----------
target_under_test: Phosphodiesterase 3A (Sus scrofa, UniProt Q9XSW7)
assay_comment: Inhibition of phosphodiesterase 3 (PDE3) from porcine platelets, range 11.4-26.9

smiles_str	IC50, µM
COc1ccc(CNc2nnc(N3CCC(O)CC3)c3ccc(C#N)cc23)cc1Cl.Cl	17.5

----------
assay_comment: Pharmacokinetic parameter, t1/2 after 0.3 mg/kg iv administration in rats
Assay type: ADME, organism-based
Set-up: dose 0.3 mg/kg, route intravenous
conditions_used: rat, in vivo

smiles_str	half-life [h]
COc1ccc(CNc2nnc(N3CCC(O)CC3)c3ccc(C#N)cc23)cc1Cl.Cl	2.2

----------
assay_comment: Pharmacokinetic parameter, Bioavailability (F) after 0.3 mg/kg po administration in rats
Type: ADME, organism-based
conditions_used: rat, in vivo, read-out: BA
test_readout: bioavailability (%)

smiles_str	assay_value
COc1ccc(CNc2nnc(N3CCC(O)CC3)c3ccc(C#N)cc23)cc1Cl.Cl	19.5

----------
assay_comment: Inhibition of phosphodiesterase 1 (PDE1) from porcine adrenal tissue, range 20.0-34.4
Set-up: species or system Sus scrofa
conditions_used: in the assay text read “porcine aorta” for “porcine adrenal tissue”
pIC50: −log10 of the molar value.

smiles_str	pIC50
COc1ccc(CNc2nnc(N3CCC(O)CC3)c3ccc(C#N)cc23)cc1Cl.Cl	4.58

The origin of these recorded values is ChEMBL document CHEMBL1133760.
